The reported numbers originate from paper PMC9482650.

Molecular target: PDZRN4_1, Q6ZMN7
Sequence (Q6ZMN7 213-318): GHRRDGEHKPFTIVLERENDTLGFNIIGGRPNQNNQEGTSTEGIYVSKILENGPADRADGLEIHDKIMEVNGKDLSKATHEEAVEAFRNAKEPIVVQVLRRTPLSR
Assay: holdup assay
Design: key: below the threshold = too weak to quantify, mostly under pKd 3.1 to 4
Details: plain residues with an end cap or a label only (N-terminal biotin on a linker: ttds)
Entries and their pKd values follow.
Give only the figure.

SSRTRRETQL [HPV16-E6, P03126] :: 5.25
VLRLQSETSV [VANGL1, Q8TAA9] :: 4.46
RSLEEEESQL [GRASP, Q7Z6J2] :: 4.17
QSARYRDTEL [TJP2, Q9UDY2] :: 4.41
STLTIFETAL [ABCC4, O15439] :: 5.42
TVASEKESVM [SLC1A5, Q15758] :: 3.87

// switching to the query binder
Incoming: Which pKd reading was recorded for the binder SVWLRKETRV [CYSLTR2, Q9NS75] ?
Outgoing: 4.76
